- Test summary: qHTS of pediatric cancer cell lines to identify multiple opportunities for drug repurposing: Primary screen for MG 63 (6-TG R) cells (AID 1347105); also: nearly all actives have a fitted effect of over 50% in size
- Test conditions: MG 63 (6-TG R) viability, CellTiter-Glo, 48 h; series mostly up to 46 µM
Results filed as inconclusive are left out. The source made the active and inactive calls. Calls follow the shape of the dose curve; as a rule, active = well fitted cell-killing curve with a large enough effect; inconclusive = small, poorly fitted or top-dose-only effect; inactive = no such curve, though single readings can be large or run the other way.
Labels: yes (1) = active, no (0) = inactive

Compound | Cat
CC(C)(C)c1cc(C(=O)O)c(NC(=O)Nc2ccc3[nH]ncc3c2)s1 | no (0)
Cc1nc(N)sc1-c1ccnc(Nc2ccc(N3CCOCC3)cc2)n1 | yes (1)
CNC(=O)c1ccc2cc(C3(O)CCn4cncc43)ccc2c1 (stereo unspecified) | no (0)
O=c1cc(-c2ccccc2)oc2cc(O)cc(O)c12 | no (0)
CC=CC(=O)N(CC)c1ccccc1C | no (0)
C=C1C(=O)OC2C=C(C)CCC=C(C)CCC12 (stereo unspecified) | no (0)

---

- Test summary: qHTS of pediatric cancer cell lines to identify multiple opportunities for drug repurposing: Primary screen for Rh30 cells (AID 1347107); also: nearly all actives have a fitted effect of over 75% in size
- Test conditions: Rh30 rhabdomyosarcoma viability, CellTiter-Glo luminescence, 48 h; series mostly up to 46 µM
Records with an inconclusive call do not appear. Calls of active or inactive are those of the source. Calls follow the shape of the dose curve; as a rule, active = well fitted cell-killing curve with a large enough effect; inconclusive = small, poorly fitted or top-dose-only effect; inactive = no such curve, though single readings can be large or run the other way.
Labels: active, inactive

Molecule | Cat
COc1ccc(-c2nc(N3CCOCC3)c3sc(CN(C)c4ncc(C(=O)NO)cn4)cc3n2)cn1 | active
COc1ccc(Cc2ccc(NC(N)=O)cc2)cc1-c1cccc(Cl)c1 | inactive
N[C@H](CSC(c1ccccc1)(c1ccccc1)c1ccccc1)C(=O)O | inactive
Clc1ccc(Cn2c(CN3CCCC3)nc3ccccc32)cc1 | inactive
COc1ccc2c(Oc3ccc(NC(=O)c4c(C)n(CC(C)(C)O)n(-c5ccccc5)c4=O)nc3)ccnc2c1 | inactive
CC(C)n1nc(-c2ccc3oc(N)nc3c2)c2c(N)ncnc21 | active
COc1ccc(C2Sc3ccccc3N(CCN(C)C)C(=O)C2OC(C)=O)cc1 (centres undefined) | inactive
COc1cc2nc(-c3ccc(N4CCN(C)CC4)cc3)nc(NCCN3CCOCC3)c2cc1OC | active
CC=C(C)C(=O)O[C@H]1C(C)=C[C@]23C(=O)[C@@H](C=C(CO)[C@@H](O)[C@]12O)[C@H]1[C@@H](C[C@H]3C)C1(C)C | inactive
CCOC(CN1C(=O)[C@](CC(=O)Nc2ccc(C)cc2)(NC(=O)Nc2ccc(C)cc2)c2ccccc21)OCC | inactive
Cc1ccc(F)c(NC(=O)Nc2ccc(-c3cccc4[nH]nc(N)c34)cc2)c1 | inactive
CCn1cc(C(=O)O)c(=O)c2ccc(C)nc21 | inactive
O=C(CCc1ccc(O)cc1)c1c(O)cc(O)cc1O[C@@H]1O[C@H](CO)[C@H](O)[C@H](O)[C@H]1O | inactive
CO[C@H]1C=CC=C(C)C(=O)NC2=CC(=O)C(NCCN(C)C)=C(C[C@@H](C)C[C@H](OC)[C@@H](O)[C@@H](C)C=C(C)[C@@H]1OC(N)=O)C2=O | active
CC=CC[C@@H](C)C(=O)[C@H]1C(=O)N[C@@H](C(C)C)C(=O)N(C)CC(=O)N(C)[C@@H](CC(C)C)C(=O)N[C@@H](C(C)C)C(=O)N(C)[C@@H](CC(C)C)C(=O)N[C@@H](C)C(=O)N[C@H](C)C(=O)N(C)[C@@H](CC(C)C)C(=O)N(C)[C@@H](CC(C)C)C(=O)N(C)[C@@H](C(C)C)C(=O)N1C | inactive
COC1CCC(N(C(=O)C2CCC(C)CC2)c2cc(C3=CCCCC3)sc2C(=O)O)CC1 (centres undefined) | inactive
CC1(C)Cc2c(sc(NC(=S)NC(=O)c3ccccc3)c2C(=O)O)CO1 | inactive
CC(=O)Oc1cc2c(s1)CCN(C(C(=O)C1CC1)c1ccccc1F)C2 (centres undefined) | inactive
CC(=O)c1ccc(S(=O)(=O)NC(=O)NC2CCCCC2)cc1 | inactive

---

- Test summary: Quantitative High-Throughput drug screen in 47 multiple myeloma cell lines against the NCATS MIPE library collection: OPM2_DSMZ cell viability assay (AID 1919872); also: nearly all actives have a fitted effect of over 30% in size; also: potency is read from the fitted curve at half-maximal effect
- Test conditions: OPM2 myeloma viability, CellTiter-Glo ATP luminescence, 48 h; series mostly up to 45.8 µM
Results filed as inconclusive are left out. The source made the active and inactive calls. Calls come from the whole dose curve; as a rule, active = well fitted cell-killing curve with a large enough effect; inconclusive = small, poorly fitted or top-dose-only effect, or effect the other way; inactive = no such curve, though single readings can be large or run the other way.

Compound | Potency
NC(=O)c1cccc2[nH]c(-c3ccc([C@H]4CCCN4)cc3F)nc12 | inactive
COCCOC(=O)C1=C(C)NC2=C(C(=O)CC(c3ccccc3OC)C2)C1c1cccc(O)c1 (stereo not given) | 16.6 µM (active)
CCOC(CN1C(=O)[C@](CC(=O)Nc2ccc(C)cc2)(NC(=O)Nc2ccc(C)cc2)c2ccccc21)OCC | inactive
O=C1NC(=O)C(=Cc2ccc(-c3ccc(F)cc3)o2)S1 | inactive
Nc1nc(F)nc2c1ncn2[C@@H]1O[C@H](COP(=O)(O)O)[C@@H](O)[C@H]1O | inactive
N#CC(=C(N)Sc1ccccc1N)C(C#N)=C(N)Sc1ccccc1N | inactive
COc1cc2ncnc(Nc3ccc(F)c(Cl)c3)c2cc1OCCCN1CCOCC1 | 54 µM (active)
CC1(C)S[C@H]2[C@H](NC(=O)[C@@H](N)c3ccc(O)cc3)C(=O)N2[C@@H]1C(=O)O | inactive
N#CC1(c2ccc(NC(=O)c3cccnc3NCc3ccncc3)cc2)CCCC1 | inactive
NC[C@@H]1O[C@@H](O[C@H]2[C@@H](O)[C@H](O[C@@H]3[C@@H](O)[C@@H](N)C[C@H](N)[C@H]3O[C@H]3O[C@H](CN)[C@@H](O)[C@@H](O)[C@H]3N)O[C@H]2CO)[C@H](N)[C@@H](O)[C@@H]1O | inactive

---

- Test summary: qHTS Assay for Lipid Storage Modulators (AID 1519)
- Test conditions: Drosophila S3 cells, BODIPY lipid droplet/cell ratio, laser cytometry; measured here: cell count channel max response; cells loaded with oleic acid
Inconclusive results are not listed.

Compound | max response (%)
CC/C(=C(\c1ccccc1)c1ccc(OCCN(C)C)cc1)c1ccccc1 | 6.28
CC(C)OC(=O)C(C)(C)Oc1ccc(C(=O)c2ccc(Cl)cc2)cc1 | -11.4
C[C@@H](O)[C@H]1C(=O)N2C(C(=O)O)=C(S[C@@H]3CN[C@H](C(=O)N(C)C)C3)[C@H](C)[C@H]12 | -4.15
CC(C)NCC(O)COc1cccc2[nH]ccc12 (stereo not given) | -0.51
CCN(CC)C(=O)c1ccc(O)c(OC)c1 | 14.3
CCCNC(=O)NS(=O)(=O)c1ccc(Cl)cc1 | 8.45
COc1ccc(-c2coc3cc(O)ccc3c2=O)cc1 | 3.06
O=C(O)c1cc(O)c2c(c1)C(=O)c1cccc(O)c1C2=O | 13.4
COc1cccc(-c2cc(=O)c3ccccc3o2)c1N | 13.8
O=c1cc(-c2ccccc2)oc2cc(O)c(O)c(O)c12 | -15.3

---

- Test summary: High-throughput drug toxicity screening in the BPDCN cell line Cal-1 (AID 1224825);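 also: cells exposed to compounds for 48 h; 100% = DMSO and 0% = bortezomib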
- Test conditions: Cal-1 BPDCN cell viability, qHTS; at 45.8 µM (top of the series) unless noted
Classify: 1 when viability (% of control) is strictly less than 50%; -1 when viability (% of control) is not.

Molecule | Cat
Cc1ccc([C@@H]2O[C@H](CO)[C@@H](O)[C@H](O)[C@@H]2O)cc1Cc1ccc(-c2ccc(F)cc2)s1 | 1
O=C(OCC#CCSc1nnc(-c2cccc3ccccc23)o1)c1cc2ccccc2s1 | -1
O=C(Nc1c(Cl)cncc1Cl)c1ccc(OC(F)F)c(OCC2CC2)c1 | -1
O=C(O)CCC1CCC(c2cc(F)ccc2F)(S(=O)(=O)c2ccc(Cl)cc2)CC1 (stereo not given) | 1
O=C(O)C(O)Cc1ccc(O)c(O)c1 (stereo not given) | -1
CCCCCCCCCCCC1=C(O)C(=O)C=C(O)C1=O | 1
CC(C)n1cnc2c(NCCCCCCNC(=O)OC(C)(C)C)nc(NCCO)nc21 | -1
CC[C@@H]1C=C(C)C[C@H](C)C[C@H](OC)[C@H]2O[C@@](O)(C(=O)C(=O)N3CCCC[C@@H]3C(=O)O[C@H](C(C)=C[C@@H]3CC[C@H](Cl)[C@H](OC)C3)[C@H](C)[C@@H](O)CC1=O)[C@H](C)C[C@H]2OC | 1
Clc1ccc(C(c2ccc(Cl)cc2)n2cc[n+](CC(OCc3ccc(Cl)cc3Cl)c3ccc(Cl)cc3Cl)c2)cc1 (stereo not given) | 1

---

- Test summary: qHTS Screen of the MIPE 4.0 Collection Against Ewings Sarcoma (TC71) (AID 1259253); also: nearly all actives have a fitted effect of over 40% in size
- Test conditions: TC71 Ewing sarcoma viability, CellTiter-Glo, 48 h; series mostly up to 45.8 µM
Records with an inconclusive call do not appear. Active and inactive are the calls of the source. Calls follow the shape of the dose curve; as a rule, active = well fitted inhibition curve with a large enough effect; inconclusive = small, poorly fitted or top-dose-only effect; inactive = no such curve, though single readings can be large or run the other way.
Labels: YES (active), NO (inactive)

Compound | Cat
NS(=O)(=O)c1cccc2c1C(=O)c1cccc(O)c1C2=O | YES
NC1CCC(Nc2nc(Nc3ccc(C(=O)N4CCCCC4)cc3)c3ncn(-c4cccc(F)c4)c3n2)CC1 (stereo not given) | NO
O=C(Nc1cccc(Br)c1)c1cccc(S(=O)(=O)N2CCCCCC2)c1 | YES
O=C(O)c1ccccc1C(=O)Nc1ccc(-c2ccccc2)cc1 | NO
COc1ccc(-c2cc(=O)c3c(O)cc(O)cc3o2)cc1O | YES

This collection of values is drawn from PubChem BioAssay (NCATS).
